Biological target: PDE4B2 (Homo sapiens)
Construct: expressed in transfected cells; host or cells: Flp-In-293 (Flpin-293-PDE4B2 [sic])
Sequence (Q07343 1-564 isoform Q07343-2): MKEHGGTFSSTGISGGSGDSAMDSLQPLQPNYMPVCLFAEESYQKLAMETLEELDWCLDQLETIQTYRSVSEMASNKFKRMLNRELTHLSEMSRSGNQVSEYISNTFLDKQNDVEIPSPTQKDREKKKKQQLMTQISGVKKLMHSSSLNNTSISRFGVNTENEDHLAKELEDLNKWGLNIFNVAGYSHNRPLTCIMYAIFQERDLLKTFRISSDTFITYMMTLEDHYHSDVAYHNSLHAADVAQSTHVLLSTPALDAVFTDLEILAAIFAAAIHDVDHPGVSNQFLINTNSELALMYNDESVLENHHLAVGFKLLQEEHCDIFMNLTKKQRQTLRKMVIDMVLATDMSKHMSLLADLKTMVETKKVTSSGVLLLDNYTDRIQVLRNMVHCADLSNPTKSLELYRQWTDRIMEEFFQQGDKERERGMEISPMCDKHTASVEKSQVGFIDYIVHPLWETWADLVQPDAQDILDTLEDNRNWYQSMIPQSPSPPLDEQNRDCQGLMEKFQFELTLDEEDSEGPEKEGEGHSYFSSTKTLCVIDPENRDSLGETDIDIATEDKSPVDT
Test: PDE4B2 cell experiment (cAMP, Eu-cAMP tracer / Ulight-anti-cAMP)
Assay type: cell-based
Conditions: Flpin-293-PDE4B2 cells, 100 nM
Exercise: for every item that follows, state its recorded Cell Inhibition% @100 nM.
Numbers only, in %.

// below: answered compounds
>>> reported("Cc1ccc2c(c1)OC[C@H]1CN(c3nc4c(c(NC5(CO)CCC5)n3)[S+]([O-])CC4)CC[C@H]21 (stereo partly shown) [Compound 112]")
99.44
>>> reported("[O-][S+]1CCc2nc(N3CCc4cc(N5CCCC5)ccc4C3)nc(NC3(CO)CCC3)c21 (stereo not shown) [Compound 92]")
98.17
>>> reported("O=[N+]([O-])c1ccc2c(c1)CN(c1nc3c(c(NC4(CO)CCC4)n1)[S+]([O-])CC3)C2 (stereo not shown) [Compound 61]")
55.2

Ask: Entry [O-][S+]1CCc2nc(N3CCc4ccc(Br)cc4CC3)nc(NC3(CO)CCC3)c21 (stereo not shown) [Compound 46] , system PDE4B2 (Homo sapiens): what Cell Inhibition% @100 nM was measured?
Reply: 99.05
